# method_notes: reversal of MRP1-mediated doxorubicin resistance, pilot screen, H69AR cells, doxorubicin co-treatment (AID 601)
# cond: H69AR cells + 2 uM doxorubicin, CellTiter-Glo, 72 h; at 10 µM; active compounds read high
metric: differential viability (reversal) (%)
The response must be a number in % with no trailing unit.

// returns reported differential viability (reversal) for input COc1ccc(C(O)Cn2c(=N)n(CCCN(C)C)c3ccccc32)cc1 (stereo unspecified) 6.39

// returns reported differential viability (reversal) for input `O=C(O)c1cc(-c2ccccc2)nc2ccccc12` 2.04

// returns reported differential viability (reversal) for input `CCN1C(=O)/C(=C/N(C)c2ccccc2)OC1=S` -0.96

// returns reported differential viability (reversal) for input COc1cc2cc(C(c3nnnn3C3CCCC3)N3CCCCCC3)c(=O)[nH]c2cc1OC (stereo unspecified) -0.62

// returns reported differential viability (reversal) for input `O=C(Cc1c[nH]c2ccccc12)N1CCc2ccccc21` 13.1

// returns reported differential viability (reversal) for input `CC(C)Sc1nc(N2CCCC2)c2c(c1C#N)CC(C)(C)OC2` 42.7
